target: His6-AspH315–758 (human aspartate/asparagine-β-hydroxylase, AspH) (Homo sapiens, UniProt Q12797); construct: N-Terminally His6-tagged human AspH315–758 (His6-AspH315–758) was produced in E. coli BL21 (DE3) cells; made in house; host or cells: E. coli BL21 (DE3), pET-28a(+) vector; test: SPE-MS AspH inhibition assay (LOPAC screen at fixed 20 μM and IC50 dose-response), hydroxylation of cyclic peptide hFX-CP101–119; assay type: biochemical; conditions: LOPAC compound at fixed 20 uM; substrate conversion, plate 1
Counter-ions that a name gives are not always drawn.
PARAMETER: Plate 1 (% conversion) (%)
Numbers only here, please. The scale is %.

Please look at this compound and report its Plate 1 (% conversion): c1ccc(-c2cnn3cc(-c4ccc(OCCN5CCOCC5)cc4)cnc23)cc1 [DMH4]
47.73

Please supply the value of reported Plate 1 (% conversion) for the item NC(CO)C(=O)NNCc1ccc(O)c(O)c1O (stereo not drawn) [benserazide, reference compound]
3.90

Dear colleague, please send me the reported Plate 1 (% conversion) for COC(=O)[C@H]1[C@H]2C[C@@H]3c4[nH]c5cc(OC)ccc5c4CCN3C[C@H]2C[C@@H](OC(=O)c2cc(OC)c(OC)c(OC)c2)[C@@H]1OC [Reserpine] when you can.
40.50

Give the reported Plate 1 (% conversion) for this compound. C[N+](C)(C)CC=O [Betaine aldehyde chloride]
36.91

Give the value of Plate 1 (% conversion) reported for the following: C#CC(N)CCC(=O)O (stereo not drawn) [gamma-Acetylinic GABA]
37.52

Specify reported Plate 1 (% conversion) for the compound shown: Cl.c1ccc(CN(CC2=NCCN2)c2ccccc2)cc1 [Antozoline hydrochloride]
41.73

Could you please provide reported Plate 1 (% conversion) for Cn1c(=O)c2c(ncn2C)n(C)c1=O [Caffeine] ? Thanks!
37.79

Give recorded Plate 1 (% conversion). N[C@@H](CS(=O)O)C(=O)O [L-Cysteinesulfinic Acid]
32.93

Output measured Plate 1 (% conversion) for this item: "Cl.NOCC(=O)O.NOCC(=O)O"
37.91

State, in one line, measured Plate 1 (% conversion) of O=C1Nc2ccccc2/C1=C1/Nc2ccccc2/C1=N\O [Indirubin-3-oxime]
32.04

State its Plate 1 (% conversion): O=C1CCc2cc(OCCCCc3nnnn3C3CCCCC3)ccc2N1 [Cilostazol]
37.54

Give me measured Plate 1 (% conversion), please, for this compound: C[C@H]1C[C@H]2[C@@H]3CCC4=CC(=O)C=C[C@]4(C)[C@@]3(F)[C@@H](O)C[C@]2(C)[C@@]1(O)C(=O)CO [Betamethasone]
37.59

Output measured Plate 1 (% conversion) for this item: C[N+]1(C)[C@@H]2CC[C@H]1C[C@@H](OC(=O)C(CO)c1ccccc1)C2 (stereo partly drawn) [Atropine methyl nitrate]
34.94

# return recorded Plate 1 (% conversion) for entry CO/N=C(\C(=O)N[C@@H]1C(=O)N2C(C(=O)O)=C(CSc3nc(=O)c(=O)[nH]n3C)CS[C@H]12)c1csc(N)n1 [Ceftriaxone sodium]
38.77

Output Plate 1 (% conversion) of OC(CCN1CCCCC1)(c1ccccc1)C1CC2C=CC1C2 (stereo not drawn) [Biperiden hydrochloride]
39.34

Give Plate 1 (% conversion) for the following compound: CC1=C(C(=O)O)N2C(=O)[C@@H](NC(=O)[C@H](N)C3=CCC=CC3)[C@H]2SC1 [Cephradine]
28.14

State its Plate 1 (% conversion): NCCSSCCN [Cystamine dihydrochloride]
38.48

Give the reported Plate 1 (% conversion) for this compound. C[C@]12C[C@H](O)[C@H]3[C@@H](CCC4=CC(=O)CC[C@@]43C)[C@@H]1CC[C@@H]2C(=O)CO [Corticosterone]
38.01

###

molecular target: His6-AspH315–758 (human aspartate/asparagine-β-hydroxylase, AspH) (Homo sapiens); construct: N-Terminally His6-tagged human AspH315–758 (His6-AspH315–758) was produced in E. coli BL21 (DE3) cells; made in house; host or cells: E. coli BL21 (DE3), pET-28a(+) vector; assay: SPE-MS AspH inhibition assay (LOPAC screen at fixed 20 μM and IC50 dose-response), hydroxylation of cyclic peptide hFX-CP101–119; type: biochemical; details: LOPAC compound at 20uM, plate 3; conversion of substrate peptide
Where a name gives a salt, the structure may show the parent alone.
What Plate 3 (% conversion) was measured for each of the following?
Number first, unit second: that is the form wanted.

Indicate the recorded Plate 3 (% conversion) value for this molecule: CN(C)CCc1c[nH]c2ccc(Cn3cncn3)cc12.O=C(O)c1ccccc1 [Rizatriptan benzoate salt]
37.82%

Return Plate 3 (% conversion) (reported value) for this molecule: "Cn1cnc2c(NCc3ccccc3)nc(NCCO)nc21"
37.63%

Determine from records and report Plate 3 (% conversion) for CSC(=N)N.CSC(=N)N.O=S(=O)(O)O [S-Methylisothiourea hemisulfate]
35.95%

State its Plate 3 (% conversion) for this molecule: O=C(O)/C=C1\CCCc2ccccc2C1O (stereo not shown)
38.57%

Write down Plate 3 (% conversion) measured for item CCCCN(CC)c1nc(C)nc2c1c(C)cn2-c1c(C)cc(C)cc1C.Cl [CP-154526 hydrochloride]
39.02%

Please report Plate 3 (% conversion) for the following molecule: "O=C1N(c2ccccc2)c2ccccc2C1(Cc1ccncc1)Cc1ccncc1"
41.24%

Please look at this molecule and report its Plate 3 (% conversion): "N[C@@H](COP(=O)(O)O)C(=O)O"
35.30%

For the molecule "COc1ccc2cccc(CCNC(C)=O)c2c1" , report Plate 3 (% conversion).
37.59%

Tell me its Plate 3 (% conversion) given "Oc1cccc2c(O)nccc12" as the entry.
40.11%

Please list Plate 3 (% conversion) recorded for the molecule "CN1CC[C@]2(CCN3CCc4c(oc5ccccc45)[C@@H]3C2)N(C)C1=O.Cl"
38.39%

Answer with the recorded Plate 3 (% conversion) for the molecule listed here: C[N+]1(CCCCC[N+]2(C)CCCC2)CCCC1.O=C([O-])C(O)C(O)C(=O)O.O=C([O-])C(O)C(O)C(=O)O [Pentolinium di[L(+)-tartrate]]
9.60%

# return recorded Plate 3 (% conversion) for input C#CCN(C)CCCOc1ccc(Cl)cc1Cl [Clorgyline hydrochloride]
42.76%

Answer with the recorded Plate 3 (% conversion) for the molecule listed here: "COC(=O)[C@@H](N)CCCN=C(N)N[N+](=O)[O-].Cl"
34.54%

Provide measured Plate 3 (% conversion) value, entry: COC(=O)C1=C(C)NC(C)=C(C(=O)OCCN(C)Cc2ccccc2)C1c1cccc([N+](=O)[O-])c1 (stereo not shown) [Nicardipine hydrochloride]
44.76%

Report Plate 3 (% conversion) for COCCc1ccc(OCC(O)CNC(C)C)cc1.O=C(O)C(O)C(O)C(=O)O (racemic) [(±)-Metoprolol (+)-tartrate]
16.57%

Provide only the value of recorded Plate 3 (% conversion) for "Nc1ncnc2c1ncn2[C@@H]1O[C@H](COP(=O)(O)CP(=O)(O)OP(=O)([O-])[O-])[C@@H](O)[C@H]1O.[Li+].[Li+]"
17.86%

# return recorded Plate 3 (% conversion) for entry CC(C)(C)C(=O)Oc1ccc(S(=O)(=O)Nc2ccccc2C(=O)NCC(=O)[O-])cc1.[Na+] [Sivelestat sodium salt hydrate]
36.62%

Name the recorded Plate 3 (% conversion) of the molecule listed here: COc1nc(C)nc(Cl)c1NC1=NCCN1.Cl [Moxonidine hydrochloride]
33.12%

Consider the molecule O=C(NCCN1CCOCC1)c1ccc(Cl)cc1 [Moclobemide] . State its measured Plate 3 (% conversion).
38.98%

Please report Plate 3 (% conversion) for the following molecule: Oc1cc(O)cc(/C=C/c2ccc(O)c(O)c2)c1 [Piceatannol, reference compound]
2.48%

For the molecule "CC1(C)CCC(NC(=O)[C@@H](N)CCC(=O)O)CC1" , report Plate 3 (% conversion).
40.87%

Please list Plate 3 (% conversion) recorded for the molecule [H]/N=C(/NC)NCCC[C@H](N)C(=O)O [NG-Monomethyl-L-arginine acetate]
38.37%

Give me measured Plate 3 (% conversion), please, for this molecule: "N=C(NCCC[C@H](N)C(=O)O)N[N+](=O)[O-]"
40.79%

Tell me its Plate 3 (% conversion) given O=C([O-])[C@H](CC(=O)N1C[C@H]2CCCC[C@H]2C1)Cc1ccccc1.O=C([O-])[C@H](CC(=O)N1C[C@H]2CCCC[C@H]2C1)Cc1ccccc1.[Ca+2] [Mitiglinide calcium] as the entry.
39.51%

Retrieve Plate 3 (% conversion) measured for "CS(=O)(=O)c1ccc(-n2nc(C(F)(F)F)cc2-c2ccc(F)cc2)cc1" and print it.
37.41%

###

Molecular target: His6-AspH315–758 (human aspartate/asparagine-β-hydroxylase, AspH) (Homo sapiens, UniProt Q12797)
Construct: N-Terminally His6-tagged human AspH315–758 (His6-AspH315–758) was produced in E. coli BL21 (DE3) cells; made in house; host or cells: E. coli BL21 (DE3), pET-28a(+) vector
Sequence (Q12797 315-758): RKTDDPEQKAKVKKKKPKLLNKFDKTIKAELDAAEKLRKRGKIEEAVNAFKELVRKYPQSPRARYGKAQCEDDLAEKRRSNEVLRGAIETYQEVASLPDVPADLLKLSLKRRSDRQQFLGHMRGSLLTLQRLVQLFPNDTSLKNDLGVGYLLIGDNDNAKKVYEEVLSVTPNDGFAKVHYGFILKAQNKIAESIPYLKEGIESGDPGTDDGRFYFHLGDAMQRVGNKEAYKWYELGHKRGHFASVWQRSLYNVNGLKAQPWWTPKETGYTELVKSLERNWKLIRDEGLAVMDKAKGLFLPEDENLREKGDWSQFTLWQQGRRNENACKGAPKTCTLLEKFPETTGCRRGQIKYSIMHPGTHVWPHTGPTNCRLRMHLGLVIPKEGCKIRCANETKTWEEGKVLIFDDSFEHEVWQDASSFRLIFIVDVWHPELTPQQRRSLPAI
Assay: SPE-MS AspH inhibition assay (LOPAC screen at fixed 20 μM and IC50 dose-response), hydroxylation of cyclic peptide hFX-CP101–119
Format: biochemical
Counter-ions that a name gives are not always drawn.
PARAMETER: Plate 1 (% conversion) (%)
# value in %; strip the unit string

Answer with reported Plate 1 (% conversion) of CCCCS(=N)(=O)CCC(N)C(=O)O (racemic) [DL-Buthionine-[S,R]-sulfoximine]
34.26

Tell me Plate 1 (% conversion) reported for "COc1ccc2[nH]c3c(c2c1)CCNC3"
36.98

Respond only with Plate 1 (% conversion) recorded for Cc1cc([C@@H]2CCCN2C)on1.Cl [ABT-418 hydrochloride]
35.68

Query Plate 1 (% conversion) for O=C1CC2(CCCC2)CC(=O)N1CCCCN1CCN(c2ncccn2)CC1 [Buspirone hydrochloride]
40.40

Please give the documented Plate 1 (% conversion) of CN1C(=O)CC[C@H]1c1cccnc1 [(-)-Cotinine]
36.85

Give me measured Plate 1 (% conversion), please, for this molecule: Cc1ncsc1CCCl.Cl [Chlormethiazole hydrochloride]
33.94

Return Plate 1 (% conversion) (reported value) for this molecule: C=CCc1ccccc1OCC(O)CNC1(C)CCC(C(C)(C)NC(=O)CBr)CC1 (stereo not shown)
65.73

Please supply the value of reported Plate 1 (% conversion) for the item CC(=O)NCCc1c[nH]c2ccc(O)cc12 [N-Acetyl-5-hydroxytryptamine]
34.66

Answer with the recorded Plate 1 (% conversion) for the molecule listed here: "COCCOc1cc2nc[nH]c(=O)c2cc1OCCOC"
40.54

Give recorded Plate 1 (% conversion). "CCS(=O)(=O)Nc1cccc(C(=C2CCCCC2)c2cnc[nH]2)c1"
40.98

Identify measured Plate 1 (% conversion) associated with "CC[C@H](CO)Nc1nc(NCc2ccccc2)c2ncn(C(C)C)c2n1"
40.73

Query Plate 1 (% conversion) for "C=CC[N+](C)(C)c1ccc(CCC(=O)CCc2ccc([N+](C)(C)CC=C)cc2)cc1.[Br-].[Br-]"
38.38

Consider the molecule O=C1C=CC(=O)C=C1 [p-Benzoquinone, reference compound] . State its measured Plate 1 (% conversion).
2.52

Determine its reported Plate 1 (% conversion): "Cl.Nc1c2c(nc3ccccc13)CCCC2"
23.39

// Input: "COc1cc2c(c(OC)c1OC)-c1ccc(OC)c(=O)cc1[C@@H](NC(C)=O)CC2" . Output its Plate 1 (% conversion) only.
37.55

Item CC(=O)OCC1=C(C(=O)[O-])N2C(=O)[C@@H](NC(=O)CCC[C@@H](N)C(=O)[O-])[C@H]2SC1.[Zn+2] [cephalosporin C zinc salt, reference compound] : provide Plate 1 (% conversion)
2.94

Look up Plate 1 (% conversion) of CCN(CC)CCCC(C)Nc1ccnc2cc(Cl)ccc12 (stereo not shown) [Chloroquine diphosphate] and report it.
38.59

Indicate the recorded Plate 1 (% conversion) value for this molecule: CC(=O)SCC[N+](C)(C)C.[Cl-] [Acetylthiocholine chloride]
37.52

Identify Plate 1 (% conversion) associated with the molecule CCn1cnc2c(Nc3cccc(Cl)c3)nc(N[C@@H]3CCCC[C@@H]3N)nc21.Cl [CGP-74514A hydrochloride]
10.02

Return the recorded Plate 1 (% conversion) value; entry: "NCCCNCCSP(=O)(O)O"
40.67

State its Plate 1 (% conversion): "O=C(N[C@@H](Cc1ccccc1)C(=O)CCl)OCc1ccccc1"
35.86

Please list Plate 1 (% conversion) recorded for the molecule CN(C)CCOC(=O)COc1ccc(Cl)cc1 [Centrophenoxine hydrochloride]
36.66

Indicate the recorded Plate 1 (% conversion) value for this molecule: NCCc1c[nH]c2ccccc12 [Tryptamine hydrochloride]
34.54

Provide only the value of recorded Plate 1 (% conversion) for "O=NN(CCCl)C(=O)NCCCl"
39.33

Item CC1CCN=C(N)S1.Cl (racemic) [(±)-AMT hydrochloride] : provide Plate 1 (% conversion)
36.89

For "Oc1ccccc1O" , write its Plate 1 (% conversion).
10.12

Please indicate Plate 1 (% conversion) recorded for CN(C)CCC=C1c2ccccc2CCc2ccccc21 [Amitriptyline hydrochloride]
38.67

Give the measured Plate 1 (% conversion) for "CC(C)(C)c1ccc(S(=O)(=O)/C=C/C#N)cc1"
32.72

State its Plate 1 (% conversion) for this molecule: CN(CC[C@@H](Oc1ccc(C(F)(F)F)cc1)c1ccccc1)CC(=O)[O-].[Li+] [Org 24598 lithium salt]
40.79

Provide one value: measured Plate 1 (% conversion) of CCCCCCCCCC[Si](C)(C)CCC(=O)NC(Cc1ccc(C)cc1)c1ccccc1 (stereo not shown)
37.15

Identify the reported Plate 1 (% conversion) for the following entry. C[N+](C)(C)CCOC(=O)CBr.[Br-] [Bromoacetylcholine bromide]
36.25
